Just for reference, the supplement of paper PMC9170038 is where these values come from.

# Test system: K4 kissing-loop RNA reporter;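 also: bound reporter read as fluorescence of individual clusters on recovered sequencing chips by microscopy, with normalized cluster intensities fitted with a binding model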
# PROTOCOL_DETAILS: apparent KD of K4 kissing-loop reporter; higher = weaker reporter binding
# TEST_PARAMETERS: Eterna round: R107; input ligand: tryptophan 2.4 mM
REPORTED_ENDPOINT: apparent KD of K4 kissing-loop reporter (nM)
Quick reminder: number only, in nM, skip the unit.

AAGUGUGGUCCAGUGAUGUUGGAACCAGAUACCAGCGACAUAGUGCGCCCUUGGCAGCUGGCACACAUGCGCUGCACGACUAGAA [Riusveis]    168
CCAUCGCUAUUCGAUACCAGCUCCUUAGUGAUGUUAAGGUUUUACCCUCUGUAGGAGGGAAGCCCUUGGCAGCGAGUAGUGAUGG [#03 K4 Theophylline B Same State]    1370
GGGAGGAGUGGUGUUGAUUAAGAAGCGGAAGGAGCGCCGAAGAAGGCAGGUAGGUCGCCGGAAUAUAGUGAUGUUAUAUAGAGGG [ExArg.E]    252
UAAUCUAACGAGAGUGAUGUUCUCGUCACAGAGGAUAUACGAUUUAGUAGAAGGCUGUUGGAUUCGCUUAAUGAUGACUAGAUUA [FMN A SS t1]    205
UAAGACAUGAAAGGAUAUCCGAUAUGGAGCCUUUAGUGAUGUUAGGAGCUAGCCGUAGACAAGAUCGGAGAAGGUUCAACCCACA [theeternabot_sameState_KL_FMN_B_13]    640

Q: Need apparent KD of K4 kissing-loop reporter, item AGGCACGAGCAAGGAUAUCGAGUAGAGUGAUGUUCUGCCUGGGUUGGCUCGGAAGGGCCUUCCCAGCGAGAAGGUGCUCGUGCCU [#2 Same State - FMN A Attempt #16 (HarryS)]
A: 493
